Can you tell me RM^0 (retention parameter, intercept at φ = 0% modifier) for the items I'm about to list?
Method: RP-HPTLC retention (RM0, lipophilicity parameter) on RP-18W/UV254 plates
Assay type: physicochemical
Assay Context: RP-18W/UV254, 2-propanol – water (φ = 0.4 - 0.7)
Experimental: Precoated RP-18W/UV254 plates (Macherey-Nagel GmbH and Co., Düren, Germany) were used for RP HPTLC analysis. […] The investigated compounds were dissolved in an appropriate solvent, methanol, 1 mg mL^-1) and the solutions (0.2 μL) were separately spotted into the plates. […] RF values were calculated as average from three measurements for each solute-mobile phase combination. For subsequent calculations mean RM values were used; these were calculated by using the formula: […]
Numbers only.

Clc1nc(NC2CCCCC2)nc(N(c2ccccc2)C2CCCCC2)n1 [III.3] : 2.691

Parameters: items (list). Returns: RM^0 (retention parameter, intercept at φ = 0% modifier) for each item.
1. CC1(Nc2nc(Cl)nc(Cl)n2)CCCCCC1 [IV.3]
2. Clc1nc(NC2CCCCC2)nc(NC2CCCCC2)n1 [III.1]

(A)
1.779
2.251

Give RM^0 (retention parameter, intercept at φ = 0% modifier) for all compounds that follow.
1. CC1(Nc2nc(Cl)nc(NC3(C)CCCC3)n2)CCCC1 [II.1]
2. CC1(Nc2nc(Cl)nc(NC3(C)CCCCC3)n2)CCCCC1 [II.2]
3. CC(Nc1nc(Cl)nc(NC(C)c2ccccc2)n1)c1ccccc1 (stereo not shown) [I.1]
4. CC(Nc1nc(Cl)nc(NC(C)c2ccc(Cl)cc2)n1)c1ccc(Cl)cc1 (stereo not shown) [I.3]
5. CC1(Nc2nc(Cl)nc(NC3(C)CCCCCC3)n2)CCCCCC1 [II.3]
6. CC1(Nc2nc(Cl)nc(Cl)n2)CCCC1 [IV.1]
7. Cc1ccc(C(C)Nc2nc(Cl)nc(NC(C)c3ccc(C)cc3)n2)cc1 (stereo not shown) [I.2]
8. CC(Nc1nc(Cl)nc(NC(C)c2ccc(Br)cc2)n1)c1ccc(Br)cc1 (stereo not shown) [I.4]

(A)
1. 2.183
2. 2.384
3. 1.900
4. 2.617
5. 3.013
6. 1.118
7. 2.525
8. 2.764

Parameters: items (list). Returns: RM^0 (retention parameter, intercept at φ = 0% modifier) for each item.
1. Clc1nc(N(c2ccccc2)C2CCCCC2)nc(N(c2ccccc2)C2CCCCC2)n1 [III.4]
2. CN(c1nc(Cl)nc(N(C)C2CCCCC2)n1)C1CCCCC1 [III.2]

(A)
2.747
2.769

###

Exercise: for every item that follows, state its recorded RM^0 (retention parameter, intercept at φ = 0% modifier).
Method: RP-HPTLC retention (RM0, lipophilicity parameter) on RP-18W/UV254 plates
Type: physicochemical
Assay Context: RP-18W/UV254, acetonitrile – water (φ = 0.5 - 0.9)
One number for each entry.

CC1(Nc2nc(Cl)nc(Cl)n2)CCCC1 : 1.497
Cc1ccc(C(C)Nc2nc(Cl)nc(NC(C)c3ccc(C)cc3)n2)cc1 (centres unmarked) : 2.786
CC1(Nc2nc(Cl)nc(NC3(C)CCCCCC3)n2)CCCCCC1 : 3.000
CC(Nc1nc(Cl)nc(NC(C)c2ccc(Br)cc2)n1)c1ccc(Br)cc1 (centres unmarked) : 2.896

Now for the compound whose RM^0 (retention parameter, intercept at φ = 0% modifier) we want.
(Q) Specify reported RM^0 (retention parameter, intercept at φ = 0% modifier) for the compound shown: CC(Nc1nc(Cl)nc(NC(C)c2ccccc2)n1)c1ccccc1 (centres unmarked)
(A) 2.110
